# ASSAYED TARGET: RNA-binding protein pos-1 (Caenorhabditis elegans, UniProt G5EF15)
# Sequence (G5EF15 whole entry, the tested form may be a part): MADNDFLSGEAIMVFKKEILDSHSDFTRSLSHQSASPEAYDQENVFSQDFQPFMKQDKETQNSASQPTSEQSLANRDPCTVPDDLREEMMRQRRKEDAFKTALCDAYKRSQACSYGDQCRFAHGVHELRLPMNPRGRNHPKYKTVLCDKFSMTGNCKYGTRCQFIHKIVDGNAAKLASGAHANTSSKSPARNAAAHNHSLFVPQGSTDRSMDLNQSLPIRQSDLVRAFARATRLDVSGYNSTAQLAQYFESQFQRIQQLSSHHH
# ASSAY DETAILS: inhibitors of POS-1/mex-3 RNA binding, dose response, biochemical, fluorescence polarization (AID 1964);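 note: purified POS-1 fused to maltose binding protein made in E. coli; potency of compounds blocking POS-1 binding to fluorescent RNA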
Activity calls are given as the source filed them. Cut-off read from the data, not from the text of the source: actives have a measured EC50 and inactives only a lower limit.

| COMPOUND | EC50 |
| --- | --- |
| CC(C)(C)c1ccc(C(=O)Nc2cccc3ncccc23)cc1 | 8.65 µM (active) |
| Cc1cccc(NC2=NC(=O)CS2)c1 | > 300 µM (not active) |
| C=CC1=C(C(=O)O)N2C(=O)[C@@H](NC(=O)/C(=N\O)c3csc(N)n3)[C@H]2SC1 (stereo in doubt) | 49.8 µM (active) |
| O=C(O)c1ccc(-n2cccc2/C=C2/NC(=O)N(c3ccccc3)C2=O)cc1 | > 300 µM (not active) |
| O=C(O)c1ccc2c(c1)C1C=CCC1C(c1ccncc1)N2 (stereo not given) | 58.5 µM (active) |
